- Tested on: Mammaliicoccus lentus
- Experimental details: Antibacterial activity against mecA-negative Staphylococcus lentus ATCC 29070T by agar dilution method
- Type: functional
MIC overview

{"Compound structure string": "CO/N=C(\\C(=O)N[C@@H]1C(=O)N2C(C(=O)O)=CCS[C@H]12)c1csc(N)n1", "Qualifier sign": "=", "MIC [µg/mL]": 1}
{"Compound structure string": "CO/N=C(\\C(=O)N[C@@H]1C(=O)N2C(C(=O)O)=C(CSc3nc(=O)c(O)nn3C)CS[C@H]12)c1csc(N)n1", "Qualifier sign": "=", "MIC [µg/mL]": 2}
{"Compound structure string": "CC1(C)S[C@@H]2[C@H](NC(=O)[C@H](N)c3ccccc3)C(=O)N2[C@H]1C(=O)O", "Qualifier sign": "<", "MIC [µg/mL]": 0.063}
{"Compound structure string": "Cc1onc(-c2ccccc2)c1C(=O)N[C@@H]1C(=O)N2[C@@H]1SC(C)(C)[C@@H]2C(=O)O", "Qualifier sign": "=", "MIC [µg/mL]": 0.5}
{"Compound structure string": "CO[C@@]1(NC(=O)Cc2cccs2)C(=O)N2C(C(=O)O)=C(COC(N)=O)CS[C@@H]21", "Qualifier sign": "=", "MIC [µg/mL]": 2}

====

MIC overview
- Tested on: Staphylococcus vitulinus
- Experimental details: Antibacterial activity against mecA-negative Staphylococcus vitulinus SVMN03 by agar dilution method
- Type: functional
- Assay conditions: Mammaliicoccus vitulinus
Reported metric: MIC (µg/mL)

{"Compound structure string": "CO/N=C(\\C(=O)N[C@@H]1C(=O)N2C(C(=O)O)=CCS[C@H]12)c1csc(N)n1", "Reported metric": "MIC", "Qualifier sign": "=", "Experimental result": 0.25}
{"Compound structure string": "CO/N=C(\\C(=O)N[C@@H]1C(=O)N2C(C(=O)O)=C(CSc3nc(=O)c(O)nn3C)CS[C@H]12)c1csc(N)n1", "Reported metric": "MIC", "Qualifier sign": "=", "Experimental result": 1}
{"Compound structure string": "Cc1onc(-c2ccccc2)c1C(=O)N[C@@H]1C(=O)N2[C@@H]1SC(C)(C)[C@@H]2C(=O)O", "Reported metric": "MIC", "Qualifier sign": "=", "Experimental result": 0.5}
{"Compound structure string": "CO[C@@]1(NC(=O)Cc2cccs2)C(=O)N2C(C(=O)O)=C(COC(N)=O)CS[C@@H]21", "Reported metric": "MIC", "Qualifier sign": "=", "Experimental result": 0.5}
{"Compound structure string": "CC1(C)S[C@@H]2[C@H](NC(=O)[C@H](N)c3ccccc3)C(=O)N2[C@H]1C(=O)O", "Reported metric": "MIC", "Qualifier sign": "<", "Experimental result": 0.063}

====

- Experimental details: Antibacterial activity against methicillin-resistant mecA-positive Staphylococcus sciuri subsp. sciuri ATCC 29062T by agar dilution method
- Format: functional
- Assay conditions: Mammaliicoccus sciuri
Reported metric: MIC (µg/mL)

{"Compound structure string": "CO/N=C(\\C(=O)N[C@@H]1C(=O)N2C(C(=O)O)=CCS[C@H]12)c1csc(N)n1", "Reported metric": "MIC", "Measurement unit": "µg/mL", "Experimental result": 2}
{"Compound structure string": "CO/N=C(\\C(=O)N[C@@H]1C(=O)N2C(C(=O)O)=C(CSc3nc(=O)c(O)nn3C)CS[C@H]12)c1csc(N)n1", "Reported metric": "MIC", "Measurement unit": "µg/mL", "Experimental result": 8}
{"Compound structure string": "CO[C@@]1(NC(=O)Cc2cccs2)C(=O)N2C(C(=O)O)=C(COC(N)=O)CS[C@@H]21", "Reported metric": "MIC", "Measurement unit": "µg/mL", "Experimental result": 2}
{"Compound structure string": "Cc1onc(-c2ccccc2)c1C(=O)N[C@@H]1C(=O)N2[C@@H]1SC(C)(C)[C@@H]2C(=O)O", "Reported metric": "MIC", "Measurement unit": "µg/mL", "Experimental result": 0.5}
{"Compound structure string": "CC1(C)S[C@@H]2[C@H](NC(=O)[C@H](N)c3ccccc3)C(=O)N2[C@H]1C(=O)O", "Reported metric": "MIC", "Measurement unit": "µg/mL", "Experimental result": 0.125}
